Sourced from PubChem BioAssay AID588405

- Test method notes: inhibition of PEG-3 promoter activity – cell-based, HeLa, luciferase luminescence, primary screen (AID 588405)
- Experimental parameters: HeLa PEG-Prom luciferase reporter, overnight, at 20 µM, stronger effect = higher value
Hit rate of the full screen: of about 360,000 compounds, about 6,200 (1.7%) were called active. Many of the other results were omitted from the sample, so actives are more common in it than they were.
Here the recorded inhibition is given for each entry.
State just the number; it will be interpreted in %.

response.value for `CCN(CC)C(=O)c1ccc(NC(=O)c2cc(-n3cnnc3)ccc2Cl)cc1` (field: inhibition) = 5.1

Record CC(CC(C#N)(c1ccccc1)c1ccccc1)N1CCCCC1 (centres undefined) . Reported inhibition: -0.65

According to the records, this compound `O=C(CSC1c2ccccc2-c2ccccc21)N/N=C/c1ccccc1` displays inhibition of 28.7

response.value for CC12CCC(O)CC1CCC1C2CCC2(C)C(C(=O)CC(O)C(F)(F)F)CCC12 (centres undefined) (field: inhibition) = -18.9

Briefly, inhibition measured for `O=P(OC1=CCCCC1)(c1ccccc1)c1ccccc1` : 8.64

Continuing:
Looking up CNCC(O)c1cc(F)c(OCc2ccccc2)c(OCc2ccccc2)c1F (centres undefined) , I found its inhibition recorded as 100

`CC(C)n1c(=O)c(C=Nc2ccc(Br)cc2)c(O)n(Cc2ccco2)c1=O` yielded inhibition of 8.27

# inhibition (compound: C[C@]12CC[C@H](O)C[C@H]1CC[C@@H]1C2CC[C@]2(C)[C@@H](C3=CC(=O)OC3)[C@@H](O)C[C@]12O (some centres undefined) ) is 112
